Tested on: Plasmodium berghei
Assay: Screen against P. berghei liver stage (PbLuc), transformed with Luciferase, at 10uM
Format: functional, HepG2
Conditions: tested at 10 uM
Hit rate of the full screen: of about 69,000 compounds, about 8,600 (12%) showed an effect of 50% or more. Only a selection was taken, and strong results are over-represented in it overall.
Classification field. Basis: INHIBITION. Definitions: low bracket = under 20%, middle bracket = from 20% up to 40%, high bracket = 40% and over

Data request: Which class is correct for the following compound? `CC(C)c1cc(N2CC[C@H](F)C2)n2nccc2n1`
Data returned: high bracket

Data request: Lab log: `COc1ccc(NC(=O)c2ccccc2NCc2ncnn2C)cc1` — assign INHIBITION category
Data returned: high bracket

Data request: Looking at CCn1ncc2c1C(COC)CN(S(=O)(=O)N(C)C)C2 (stereo not drawn) , which class would you pick?
Data returned: low bracket

Data request: Dear colleague, I would appreciate it if you could identify the bin for `O=C(c1cscn1)N1CCc2c(COCC3CC3)cncc2C1` and reply at your convenience.
Data returned: high bracket

Data request: // bin(item) where item = `Cc1nc(CN(C)C(=O)Nc2cccc(C)c2C)no1`
Data returned: middle bracket

Data request: Lab log: `Cc1nnc2n1CCN(C(=O)C1CCN(Cc3ccccc3)CC1)C2` — assign INHIBITION category
Data returned: middle bracket

Data request: Which INHIBITION category applies to `COCc1cncc2c1CCN(C(=O)c1cscn1)C2` here?
Data returned: middle bracket

Data request: The entry to classify is `CN1C[C@@H](C(=O)NC(C)(C)C)[C@@]2(CCc3ccccc3C(=O)N2)C1` ; which class holds it?
Data returned: low bracket

Data request: Class? Entry: `Cc1cc2n(n1)[C@@H](C(F)(F)F)C[C@@H](C1CCN(C(=O)C(C)C)CC1)N2`
Data returned: low bracket

Data request: Determine which band this compound sits in: `Cc1n[nH]cc1CNc1ccc2c(c1)N(C(=O)OC(C)(C)C)CCC2`
Data returned: middle bracket

Data request: State the class of the compound shown: Cc1cc(C(=O)NC2CCCOc3cc(Cl)ccc32)n(C)n1 (stereo not drawn)
Data returned: high bracket

Data request: Assign a bin to `O=C(c1ccnnc1)N1CCN(Cc2cccnc2)c2ncccc2C1`
Data returned: low bracket

Data request: Hello team, could you let me know which band the following compound falls into: `CC(C)C(=O)N1CCN(c2ncnc3cc4c(cc23)OCCO4)CC1`
Data returned: low bracket

Data request: Class (by measured INHIBITION) for Cc1ccc(CC(=O)N2CCCCC2Cn2cccn2)cn1 (stereo not drawn)
Data returned: middle bracket

Data request: Hi, small favor: classify `Cn1c(C(=O)N2CC[C@@]3(O)CCCC[C@H]3C2)cc2ccccc21` by its INHIBITION when you get a moment.
Data returned: low bracket

Data request: Exam item: assign `CC(C)(C)OC(=O)N1CCCc2ccc(NCc3ccon3)cc21` to the correct category.
Data returned: high bracket

Data request: Given `Cn1cc(S(=O)(=O)N2CCN(S(=O)(=O)c3ccc(Br)s3)CC2)cn1` , name the class its INHIBITION places it in.
Data returned: high bracket

Data request: Sort into band: `CC(C)c1cc(N[C@H](C(N)=O)C(C)C)n2nccc2n1`
Data returned: high bracket

Data request: Please indicate the class for `Cc1nc(C2CCN(Cc3ncc[nH]3)CC2)no1` based on its INHIBITION.
Data returned: middle bracket

Data request: Consider `CCOCc1cncc2c1CCN(C(=O)c1cscn1)C2` . To which INHIBITION class does it belong?
Data returned: high bracket

Data request: Which bin should I file `CC(C)COCc1cncc2c1CCN(C(=O)c1cscn1)C2` under?
Data returned: low bracket

Data request: Kindly state the category for this compound: `CCCNC(=O)Nc1ccc2c(c1)N(S(=O)(=O)CC)CC2`
Data returned: middle bracket

Data request: Just checking, what class would you give `CC(C)(C)OC(=O)N1CCCc2ccc(NCc3cc[nH]c3)cc21` here?
Data returned: high bracket

Data request: Assign a category based on measured INHIBITION for CNC(C(=O)OC)c1cc(F)ccc1F (stereo not drawn) and give only the class name.
Data returned: low bracket

Data request: Which category fits this record: `CC(=O)NCC1CCN(c2cc(C(C)C)nc3ccnn23)CC1`
Data returned: high bracket

Data request: Class (by measured INHIBITION) for CN(C)S(=O)(=O)c1ccc(=O)n(CC2CCCO2)c1 (stereo not drawn)
Data returned: low bracket

Data request: Just checking, what class would you give O=C(NCC1(COc2cnccn2)C[C@@H](O)[C@@H](O)C1)C1CC1 (stereo partly drawn) here?
Data returned: low bracket

Data request: Band of `Cn1ncnc1CNc1ccccc1C(=O)NC(C)(C)C` ?
Data returned: low bracket

Data request: Category of `CCCOCC(=O)N1CCc2nc(NC)nc(C(=O)N3CCCC3)c2C1` , please.
Data returned: low bracket

Data request: Lab note: sort `CC(=O)N1CCC(NC(=O)c2ccc3c(c2O)OC(C)(C)C3)CC1` into the matching INHIBITION band.
Data returned: high bracket

Data request: Hi, small favor: classify `CC(C)c1cc(N2CCC(CCC(=O)NC3CC3)CC2)n2nccc2n1` by its INHIBITION when you get a moment.
Data returned: middle bracket

Data request: For the record CC(=O)N1CCc2nc(C3CCN(c4ncccn4)C3)ncc2C1 (stereo not drawn) , report the class its INHIBITION corresponds to.
Data returned: low bracket

Data request: Category lookup for the compound `Cc1cnn(C2CN(CC(=O)NCCc3cccs3)C2)c1`
Data returned: high bracket

Data request: # bin label for CN(Cc1ccccc1)C(=O)CN1CCCCC1Cn1cncn1 (stereo not drawn)
Data returned: middle bracket

Data request: Kindly state the category for this compound: CCOC1CCCN(C(=O)c2nn(-c3ccccc3F)cc2O)C1 (stereo not drawn)
Data returned: low bracket

Data request: For `CN(Cc1ccsc1)C(=O)Nc1ccc(S(C)(=O)=O)cc1` , which INHIBITION bin applies?
Data returned: middle bracket

Data request: Dear colleague, I would appreciate it if you could identify the bin for `CC(=O)NCCCNC(=O)Nc1ccccc1-n1nc(C)cc1C` and reply at your convenience.
Data returned: low bracket

Data request: Looking at `CCNC(=O)N1CCc2ccc(NC(=O)NCCOCC)cc21` , which class would you pick?
Data returned: low bracket

Data request: Each compound maps to one class by INHIBITION. Which class for `CC1(C)Cc2ccc(C(=O)NC3CCOCC3)c(O)c2O1` ?
Data returned: low bracket

Data request: Sort into band: `Cn1ncnc1CNc1ccc2c(c1)N(C(=O)OC(C)(C)C)CCC2`
Data returned: high bracket
